- protocol summary: basal HepG2 mitochondrial membrane potential changes, profiling panel, cell-based, JC-1 fluorescence, 24 h, 100 nL compound (AID 1167); further: test concentration not given here
- test conditions: higher = more signal

{"columns": ["compound string", "z-score"],
 "data": [
  ["C[C@@H](c1ccccc1)N1C(=O)[C@H]2[C@H]3[C@H](O)[C@H](O)CC(=NOC[C@@H](O)COCc4ccco4)[C@H]3CC[C@H]2C1=O", -0.137],
  ["CON=C(C)CCN1CCc2nc(-c3ccccc3)c(-c3ccccc3)cc2C1", 1.03],
  ["CC(C)=CCCC(C)=CCON=C1C[C@@H](O)[C@@H](O)[C@@H]2[C@@H]3C(=O)N(Cc4ccc5c(c4)OCO5)C(=O)[C@@H]3CC[C@@H]12", -0.0991],
  ["CC[C@@H](c1ccccc1)n1c(=O)n2n(c1=O)[C@H]1[C@H](O)[C@@H]3O[C@@H]3C(=NOCc3ccccc3)[C@H]1CC2", 0.517]
]}
